test system: Digitaria sanguinalis; test: Herbicidal activity against hairy Digitaria sanguinalis (hairy crabgrass) assessed as inhibition of herb growth at 1.5 kg/ha during preemergence treatment protocol; type: functional; details: pre-emergence, read-out: GI
property: inhibition of growth at 1500 g/ha (%)
Provide the reading as a plain figure in %.

Query :: Consider the compound CCOCCOC(=O)/C(C#N)=C(\NCC1CCCO1)SC (stereo unspecified) and give its measured inhibition of growth at 1500 g/ha.
Result :: 35.7

Query :: Consider the compound CCOCCOC(=O)/C(C#N)=C(\NCc1cnc(OC(C)C)s1)SC and give its measured inhibition of growth at 1500 g/ha.
Result :: 14.8

Query :: Consider the compound CCOCCOC(=O)/C(C#N)=C(\NCc1cnc(OCC)s1)SC and give its measured inhibition of growth at 1500 g/ha.
Result :: 44.6

Query :: Consider the compound CCOCCOC(=O)/C(C#N)=C(\NCc1cnc(Br)s1)SC and give its measured inhibition of growth at 1500 g/ha.
Result :: 8.9

Query :: Consider the compound CCOCCOC(=O)/C(C#N)=C(\NCc1ccoc1)C(C)C and give its measured inhibition of growth at 1500 g/ha.
Result :: 33.6

Query :: Consider the compound CCOCCOC(=O)/C(C#N)=C(\NCc1ccc(N2CCOCC2)nn1)SC and give its measured inhibition of growth at 1500 g/ha.
Result :: 6.9

Query :: Consider the compound CCOCCOC(=O)/C(C#N)=C(\NCC1CCCO1)C(C)C (stereo unspecified) and give its measured inhibition of growth at 1500 g/ha.
Result :: 40

Query :: Consider the compound CCOCCOC(=O)/C(C#N)=C(\NCc1cnc(OC)nc1)C(C)C and give its measured inhibition of growth at 1500 g/ha.
Result :: 46.2

Query :: Consider the compound CCOCCOC(=O)/C(C#N)=C(\NCc1ccc(N(C)C)nc1)SC and give its measured inhibition of growth at 1500 g/ha.
Result :: 28.7

Query :: Consider the compound CCOCCOC(=O)/C(C#N)=C(\NCc1ccc(OCC)nn1)SC and give its measured inhibition of growth at 1500 g/ha.
Result :: 0

Query :: Consider the compound CCOCCOC(=O)/C(C#N)=C(\NCc1ccc(N(C)C)nc1)C(C)C and give its measured inhibition of growth at 1500 g/ha.
Result :: 52.5

====

test system: Digitaria sanguinalis; assay: Herbicidal activity against hairy Digitaria sanguinalis (hairy crabgrass) assessed as inhibition of herb growth at 1.5 kg/ha during preemergence treatment protocol; format: functional; details: pre-emergence, read-out: GI
Form field: inhibition of growth at 1500 g/ha (one value per entry).
Provide the reading as a plain figure in %.

Past entries and their recorded results:
line-notation | measurement-unit | inhibition of growth at 1500 g/ha
CCOCCOC(=O)/C(C#N)=C(\NCc1cnc(Cl)s1)C(C)C | % | 28.7
CCOCCOC(=O)/C(C#N)=C(/CC)NCc1ccc(Br)nc1 | % | 18.8
CCCOc1ncc(CN/C(SC)=C(/C#N)C(=O)OCCOCC)s1 | % | 0
CCOCCOC(=O)/C(C#N)=C(\NCc1cnc(OCC(F)(F)F)s1)C(C)C | % | 34.6

Proceeding to the next compound to report its inhibition of growth at 1500 g/ha.
Query :: Consider the compound CCOCCOC(=O)/C(C#N)=C(\NCc1ccc(Br)nc1)SC and give its measured inhibition of growth at 1500 g/ha.
Result :: 0
